# method.summary: NCI Yeast Anticancer Drug Screen. Data for the bub3 strain (AID 167)
# experimental.parameters: S. cerevisiae bub3 mutant strain, at 50.0 µM
The panel holds about 79,000 compounds, 15% with a hit somewhere; the sample as a whole holds those more often. Activity calls are given as the source filed them. Rule as the data show it: active = growth inhibition above about 70%; inactive = the rest.
Hi there, use one of these labels in your reply, thanks! active, inactive

Answered examples (2):
# compound, label.class
data = [
    ("O=C(Nc1ccc(S(=O)(=O)NC2CCCCC2)cc1)OC1CCCCCCC1", "inactive"),
    ("CC1OC(CC(=O)O)Cc2c1c(O)c1c(O)cc(-c3cc(=O)c4c(=O)c5c(c(=O)c=4c3=O)CC(CC(=O)O)OC5C)c(O)c1c2O (configuration not stated)", "inactive"),
]

QUERY: Which outcome did this test record for the compound COC(=O)c1nc(=S)[nH]c(C(=O)OC)c1C(=O)c1ccc([N+](=O)[O-])cc1 ?
RESULT: inactive

QUERY: Which outcome did this test record for the compound O=[N+]([O-])/C(Cl)=C(/C(Cl)=C(Cl)Cl)N1CCCCC1 ?
RESULT: inactive

QUERY: Which outcome did this test record for the compound C[N+](C)(C)CC(=O)N/N=C(\C(=O)NC1=C(Cl)C(=O)c2ccccc2C1=O)C(C#N)c1nc(-c2ccc([N+](=O)[O-])cc2)cs1 (configuration not stated) ?
RESULT: active

QUERY: Which outcome did this test record for the compound O=C1/C(=C/c2ccccc2)CN(C(=O)C(F)(F)F)C/C1=C\c1ccccc1 ?
RESULT: inactive

QUERY: Which outcome did this test record for the compound CCN(C(=O)c1ccccc1C)C(c1ccccc1)P(=O)(c1ccccc1)c1ccccc1 (configuration not stated) ?
RESULT: active

QUERY: Which outcome did this test record for the compound O=C1C(Br)CCC1(c1ccccc1)c1ccccc1 (configuration not stated) ?
RESULT: active

QUERY: Which outcome did this test record for the compound CC1CCN(CCCOC(=O)c2ccccc2)CC1 ?
RESULT: inactive

QUERY: Which outcome did this test record for the compound O=C1C=CC(=O)N1Cc1ccccc1 ?
RESULT: active

QUERY: Which outcome did this test record for the compound COc1cccc(C2Nc3ccccc3C(=O)N2N2CCOCC2)c1 (configuration not stated) ?
RESULT: inactive

QUERY: Which outcome did this test record for the compound O=C(Cl)c1ccc(N=Nc2ccccc2)cc1 ?
RESULT: inactive

QUERY: Which outcome did this test record for the compound Cn1c(=O)c2c(nc(CCCCCCCc3nc4c(c(=O)n(C)c(=O)n4C)n3C)n2C)n(C)c1=O ?
RESULT: inactive

QUERY: Which outcome did this test record for the compound CC(C)c1ccc2c(c1)CCC1C(C)(CNC(=O)S)CCCC21C.[Zn+2] (configuration not stated) ?
RESULT: inactive

QUERY: Which outcome did this test record for the compound CCCCCCCCN(CCCCCCCC)CC(O)c1cc(-c2ccc(Cl)cc2)nc2c(Cl)cccc12 (configuration not stated) ?
RESULT: inactive

QUERY: Which outcome did this test record for the compound CC(C)(C)CCCC(C(=O)O)c1ccccc1 (configuration not stated) ?
RESULT: inactive

QUERY: Which outcome did this test record for the compound c1ccc2c(c1)Cc1c-2nc2ccccc2c1N1CCOCC1 ?
RESULT: inactive

QUERY: Which outcome did this test record for the compound CCCCCCSC(=Cc1cccc[n+]1C)SCCCCCC ?
RESULT: active

QUERY: Which outcome did this test record for the compound C/C(=N\NC(=S)NCCCNC(=S)N/N=C(\C)c1ccccn1)c1ccccn1 ?
RESULT: active

QUERY: Which outcome did this test record for the compound CN1C(=O)C23SSC1(C)C(=O)N2c1ccccc1C3(C)C (configuration not stated) ?
RESULT: active

QUERY: Which outcome did this test record for the compound CC(C)Cc1cc2c(cc1O)CCC1C2CC[C@@]2(C)C1CC[C@@H]2O (some centres not stated) ?
RESULT: active

QUERY: Which outcome did this test record for the compound c1ccc(NNc2ccc3ccccc3n2)cc1 ?
RESULT: active

====

Could you please report measured growth inhibition for the items listed next?
# method.summary: NCI Yeast Anticancer Drug Screen. Data for the cln2 rad14 strain (AID 165);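 also: 0% = growth equal to vehicle treated cultures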
# experimental.parameters: S. cerevisiae cln2 rad14 strain, at 5.0 µM (retest, dose inferred, filed as 0.5), stronger effect = higher value
Compounds without any hit were thinned out: in the full panel of roughly 79,000, 15% have a hit.
Numbers only, in %.

# molecule, experimental.result
records = [
    ("CCCCCC[C@@H](O)C/C=C\\CCCCCCCC(=O)OCCCC", -3),
]

Consider the following items and state reported growth inhibition for each.
1. CCOP(=O)(OCC)OC1c2[nH]ccc2-c2cc(C(=O)OC)[nH]c2C1OC (configuration not stated)
2. CCN(C(=O)c1ccccc1C)C(c1ccccc1)P(=O)(c1ccccc1)c1ccccc1 (configuration not stated)
3. Nc1nnc(-c2cc(=O)c3cc(Cl)ccc3o2)s1
4. C=CCCCCCCCCC(=O)OCC=C
5. CCOc1ccc(C(OC)OC)cc1[N+](=O)[O-]
6. [O-][N+]1=C2CCC/C(=N/O)C2(O)C2CCCCC21N1CCOCC1 (configuration not stated)
7. COc1ccc(/C(Cl)=C(\C=O)c2ccc(Cl)cc2)cc1OC
8. O=c1onc(-c2ccc(Cl)cc2)c2ccccc12

RESULT:
1. -6
2. 54
3. -2
4. 0
5. -4
6. 23
7. 7
8. 5

====

Could you please report measured growth inhibition for the items listed next?
# method.summary: NCI Yeast Anticancer Drug Screen. Data for the mec2-1 strain (AID 157)
# experimental.parameters: S. cerevisiae mec2-1 strain, at 5.0 µM (retest, dose inferred, filed as 0.5), stronger effect = higher value
Compounds without any hit were thinned out: in the full panel of roughly 79,000, 15% have a hit.
Answers are plain numbers, in %.

The cases that follow already have their growth inhibition on record.
# compound, quantity.name, measure.unit, experimental.result
records = [
    ("CCOc1c(N=Nc2ccccc2Cl)c(-c2ccccc2)nn1C(=S)S", "growth inhibition", "%", -4),
    ("OC1c2cccn2-c2cc(Cl)ccc2SC1c1ccccc1 (stereo not drawn)", "growth inhibition", "%", 1),
    ("CCCCCCCCCCCC(=O)OCC1CO1 (stereo not drawn)", "growth inhibition", "%", -13),
    ("O=[N+]([O-])c1ccc2c(c1)/C(=N\\O)c1cc(Br)ccc1-2", "growth inhibition", "%", 5),
    ("c1ccc2c(c1)-c1cccc3cncc-2c13", "growth inhibition", "%", 52),
    ("S=C1NC2=C(CSC/C2=C\\c2ccccc2)C(c2ccccc2)N1 (stereo not drawn)", "growth inhibition", "%", -8),
    ("C[n+]1c(-c2ccc(/C=N\\Nc3nnc(S)n3/N=C/c3ccc(-c4cn5ccccc5[n+]4C)cc3)cc2)cn2ccccc21", "growth inhibition", "%", -16),
    ("CC(C)C(=O)/C=C/c1c(Cl)cccc1Cl", "growth inhibition", "%", 14),
]

Consider the following items and state reported growth inhibition for each.
1. O=C(O)C1C2CC3CC(C2)CC1C3 (stereo not drawn)
2. COc1ccc(/C=C2\CN(C)C/C(=C\c3ccc(OC)cc3)C2=O)cc1
3. O=C(Nc1ccc(NC(=O)Nc2cc(C(=O)Nc3ccc(C4=NCCN4)cc3)ccc2C(=O)Nc2ccc(C3=NCCN3)cc2)cc1)Nc1cc(C(=O)Nc2ccc(C3=NCCN3)cc2)ccc1C(=O)Nc1ccc(C2=NCCN2)cc1
4. COC(=O)C1(Cc2ccc3c(c2)CCC3)Cc2ccc3c(c2C1O)CCC3 (stereo not drawn)
5. CC1=CC(c2c(O)cc(O)c(C(=O)CCc3ccccc3)c2O)C(C(C)C)CC1 (stereo not drawn)

RESULT:
1: 8; 2: 18; 3: 0; 4: -1; 5: 10

Consider the following items and state reported growth inhibition for each.
1. N#CC(C(=O)C(=O)Nc1ccc(Cl)cc1)c1c(Cl)cccc1Cl (stereo not drawn)
2. c1ccc2c(O[Si](Oc3cccc4ccccc34)(Oc3cccc4ccccc34)Oc3cccc4ccccc34)cccc2c1
3. O=S(=O)(C#Cc1ccccc1)c1ccccc1
4. COc1ccccc1/C=N/Nc1nnc(N/N=C/c2ccccc2OC)c2ccccc12
5. CCN(CC)CC(O)c1ccc2cc(Cl)c3ccccc3c2c1 (stereo not drawn)

RESULT:
1. 7
2. 0
3. -11
4. 13
5. 4

Consider the following items and state reported growth inhibition for each.
1. COc1ccc2c(c1)CC[C@@H]1C2CC[C@]2(C)OC(=O)CCC12 (stereo partly drawn)
2. Cc1ccc(Nc2nc3nc[nH]c3c(=O)[nH]2)cc1CO
3. CCCCP(CCCC)(CCCC)=C(C(=O)OC)C(C(=O)OC)=C1SC(C(=O)OC)=C(C(=O)OC)S1
4. Cc1nnc(NS(=O)(=O)c2ccc(N=Nc3cc(N=Nc4ccc(S(=O)(=O)Nc5nnc(C)s5)cc4)c4c(NC(=O)C(Cl)Cl)cccc4c3OC(=O)C(Cl)Cl)cc2)s1 (tested in a mixture with another compound)
5. C=CCCCCn1c2ccccc2c2c(C)c3c[n+](C)ccc3c(C)c21
6. Oc1ccc(C2CCc3ccccc32)cc1 (stereo not drawn)
7. COc1cccc2c1C(=O)c1c(O)c3c(c(O)c1C2=O)C[C@@](O)(/C(C)=N\NC(N)=O)C[C@@H]3OC1CC(N)C(O)C(C)O1 (stereo partly drawn)
8. COc1ccc(OC)c2c1C=CC(Br)=CC2

RESULT:
[-5, 10, 4, 92, 99, -36, 52, 24]
